Values were extracted from PubChem BioAssay AID1963826.

Test system: 926638-142-R-J1-PDC complex spheroid viability
Test: Anticancer human tumor 926638-142-R-J1-PDC patient-derived endometrial carcinoma cell line growth inhibition [POLQ]
Conditions: second compound 0.316 µM; first compound 0.0316 µM; stronger effect = lower value
For each entry below, report its viability, T/C value.
All answers are understood in %, so give the number only.

Exercise: Reported viability, T/C for CCc1c2c(nc3ccc(O)cc13)-c1cc3c(c(=O)n1C2)COC(=O)[C@]3(O)CC + Nc1ccc(C#CCN(C(=O)Cc2ncc(C(F)(F)F)cc2C(F)(F)F)c2ccc(F)cc2)nn1 : what is it?
Solution: 33.7

Exercise: Reported viability, T/C for CCCS(=O)(=O)Nc1ccc(F)c(C(=O)c2c[nH]c3ncc(-c4ccc(Cl)cc4)cc23)c1F + Cc1cccc(N(C)C(=O)C2C(O)CCN2c2nc(C)cc(C(F)(F)F)c2C#N)c1 : what is it?
Solution: 114

Exercise: Reported viability, T/C for CC(C)n1c(=O)n(C)c2cnc3cc(F)c(-c4ccc(OCCCN5CCCCC5)nc4)cc3c21 + Nc1ccc(C#CCN(C(=O)Cc2ncc(C(F)(F)F)cc2C(F)(F)F)c2ccc(F)cc2)nn1 : what is it?
Solution: 96.3

Exercise: Reported viability, T/C for Nc1ccn(C2OC(CO)C(O)C2(F)F)c(=O)n1 (stereo not given) + COC1C(OC(N)=O)C(O)C(Oc2ccc3c(O)c(NC(=O)c4ccc(O)c(CC=C(C)C)c4)c(=O)oc3c2C)OC1(C)C : what is it?
Solution: 75.8

Exercise: Reported viability, T/C for O=C(Nc1ccc(O)c(NS(=O)(=O)c2ccc(F)cc2)c1)c1ccc(-c2ccccc2)cc1 + Cc1cccc(N(C)C(=O)C2C(O)CCN2c2nc(C)cc(C(F)(F)F)c2C#N)c1 : what is it?
Solution: 94.3

* * *

Test system: 926638-142-R-J1-PDC complex spheroid viability
Experiment: Anticancer human tumor 926638-142-R-J1-PDC cell line growth inhibition [POLQ];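 further: spheroids exposed to drugs for one week before readout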
Conditions: curve of first compound; second compound 0.1 µM
Experimental endpoint: IC50 (nM)
All answers are understood in nM, so give the number only.

Exercise: Notebook entry, 926638-142-R-J1-PDC complex spheroid viability assay: IC50 of COc1cccc2c1C(=O)c1c(O)c3c(c(O)c1C2=O)CC(O)(C(=O)CO)CC3OC1CC(N)C(O)C(C)O1 (stereo not given) + Cc1cccc(N(C)C(=O)C2C(O)CCN2c2nc(C)cc(C(F)(F)F)c2C#N)c1 = ?
Solution: 144

Exercise: Notebook entry, 926638-142-R-J1-PDC complex spheroid viability assay: IC50 of COc1ccc([C@@H](O)c2cc(-c3ncnc4cc(N5CCOCC5)ccc34)c(F)cc2Cl)nn1 + Cc1cccc(N(C)C(=O)C2C(O)CCN2c2nc(C)cc(C(F)(F)F)c2C#N)c1 = ?
Solution: 546

Exercise: Notebook entry, 926638-142-R-J1-PDC complex spheroid viability assay: IC50 of C=CCn1c(=O)c2cnc(Nc3ccc(N4CCN(C)CC4)cc3)nc2n1-c1cccc(C(C)(C)O)n1 + COC1C(OC(N)=O)C(O)C(Oc2ccc3c(O)c(NC(=O)c4ccc(O)c(CC=C(C)C)c4)c(=O)oc3c2C)OC1(C)C = ?
Solution: 445

* * *

Tested on: 926638-142-R-J1-PDC complex spheroid viability
Assay: Anticancer human tumor 926638-142-R-J1-PDC cell line growth inhibition [POLQ];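 further: spheroids exposed to drugs for one week before readout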
Conditions: curve of first compound; second compound 3.16 µM
Description: Multicellular complex tumor spheroid response to Polymerase (POL) inhibitors (novobiocin, ART-558, RP6685) in combination with a variety of drugs and investigational agents in selected tumor cell lines The POL inhibitors (novobiocin, ART-558, and RP6685) were evaluated both individually and in combination with standard of care and investigational anticancer small molecules within a complex spheroid model of solid tumors. . […]
Experimental endpoint: pIC50
Reminder that pIC50 is minus the log10 of a molar concentration.

Exercise: Reported pIC50 for CC1COCCN1c1cc(C2(O)CC3CCC(C2)O3)c2cnn(-c3ccn[nH]3)c2n1 (stereo not given) + COC1C(OC(N)=O)C(O)C(Oc2ccc3c(O)c(NC(=O)c4ccc(O)c(CC=C(C)C)c4)c(=O)oc3c2C)OC1(C)C : what is it?
Solution: 6.65

Exercise: Reported pIC50 for COc1ccc([C@@H](O)c2cc(-c3ncnc4cc(N5CCOCC5)ccc34)c(F)cc2Cl)nn1 + COC1C(OC(N)=O)C(O)C(Oc2ccc3c(O)c(NC(=O)c4ccc(O)c(CC=C(C)C)c4)c(=O)oc3c2C)OC1(C)C : what is it?
Solution: 6.20

Exercise: Reported pIC50 for CCc1cc2c(N3CCc4c(cc(Cn5ccnc5)cc4-c4cn(C)nc4C(F)(F)F)C3=O)cc(C)nc2c(OC)n1 + Cc1cccc(N(C)C(=O)C2C(O)CCN2c2nc(C)cc(C(F)(F)F)c2C#N)c1 : what is it?
Solution: 6.33

Exercise: Reported pIC50 for Nc1ccn(C2OC(CO)C(O)C2(F)F)c(=O)n1 (stereo not given) + Nc1ccc(C#CCN(C(=O)Cc2ncc(C(F)(F)F)cc2C(F)(F)F)c2ccc(F)cc2)nn1 : what is it?
Solution: 6.35

Exercise: Reported pIC50 for CC1COCCN1c1cc(C2(O)CC3CCC(C2)O3)c2cnn(-c3ccn[nH]3)c2n1 (stereo not given) + Nc1ccc(C#CCN(C(=O)Cc2ncc(C(F)(F)F)cc2C(F)(F)F)c2ccc(F)cc2)nn1 : what is it?
Solution: 6.70

Exercise: Reported pIC50 for CC1COCCN1c1cc(-c2ccnn2C)c2ccnc(-c3ccn[nH]3)c2n1 (stereo not given) + Cc1cccc(N(C)C(=O)C2C(O)CCN2c2nc(C)cc(C(F)(F)F)c2C#N)c1 : what is it?
Solution: 6.36

Exercise: Reported pIC50 for CC[C@@]1(O)C(=O)OCc2c1cc1n(c2=O)Cc2cc3c(CN(C)C)c(O)ccc3nc2-1 + COC1C(OC(N)=O)C(O)C(Oc2ccc3c(O)c(NC(=O)c4ccc(O)c(CC=C(C)C)c4)c(=O)oc3c2C)OC1(C)C : what is it?
Solution: 7.01

Exercise: Reported pIC50 for C=CC(=O)N1CCN(c2nc(=O)n(-c3c(C)ccnc3C(C)C)c3nc(-c4c(O)cccc4F)c(F)cc23)C(C)C1 (stereo not given) + Cc1cccc(N(C)C(=O)C2C(O)CCN2c2nc(C)cc(C(F)(F)F)c2C#N)c1 : what is it?
Solution: 5.18

Exercise: Reported pIC50 for CC(=O)O[C@H]1C(=O)[C@@]2(C)[C@H]([C@H](OC(=O)c3ccccc3)[C@]3(O)C[C@H](OC(=O)[C@H](O)[C@@H](NC(=O)c4ccccc4)c4ccccc4)C(C)=C1C3(C)C)[C@]1(OC(C)=O)CO[C@@H]1C[C@@H]2O + Cc1cccc(N(C)C(=O)C2C(O)CCN2c2nc(C)cc(C(F)(F)F)c2C#N)c1 : what is it?
Solution: 5.89

Exercise: Reported pIC50 for CC1COCCN1c1cc(C2(S(C)(=N)=O)CC2)nc(-c2ccnc3[nH]ccc23)n1 (stereo not given) + Nc1ccc(C#CCN(C(=O)Cc2ncc(C(F)(F)F)cc2C(F)(F)F)c2ccc(F)cc2)nn1 : what is it?
Solution: 5.41

Exercise: Reported pIC50 for COc1cccc(OCCCN)c1-c1cc(Nc2cnc(C#N)cn2)n[nH]1 + Cc1cccc(N(C)C(=O)C2C(O)CCN2c2nc(C)cc(C(F)(F)F)c2C#N)c1 : what is it?
Solution: 6.97

Exercise: Reported pIC50 for CCc1cc2c(N3CCc4c(cc(Cn5ccnc5)cc4-c4cn(C)nc4C(F)(F)F)C3=O)ccnc2c(OC)n1 + Nc1ccc(C#CCN(C(=O)Cc2ncc(C(F)(F)F)cc2C(F)(F)F)c2ccc(F)cc2)nn1 : what is it?
Solution: 6.24

Exercise: Reported pIC50 for CCc1c2c(nc3ccc(O)cc13)-c1cc3c(c(=O)n1C2)COC(=O)[C@]3(O)CC + Nc1ccc(C#CCN(C(=O)Cc2ncc(C(F)(F)F)cc2C(F)(F)F)c2ccc(F)cc2)nn1 : what is it?
Solution: 8.15

Exercise: Reported pIC50 for Nc1ccn(C2OC(CO)C(O)C2(F)F)c(=O)n1 (stereo not given) + COC1C(OC(N)=O)C(O)C(Oc2ccc3c(O)c(NC(=O)c4ccc(O)c(CC=C(C)C)c4)c(=O)oc3c2C)OC1(C)C : what is it?
Solution: 6.06

Exercise: Reported pIC50 for CCc1cc2c(N3CCc4c(cc(Cn5ccnc5)cc4-c4cn(C)nc4C(F)(F)F)C3=O)cc(C)nc2c(OC)n1 + Nc1ccc(C#CCN(C(=O)Cc2ncc(C(F)(F)F)cc2C(F)(F)F)c2ccc(F)cc2)nn1 : what is it?
Solution: 6.14

Exercise: Reported pIC50 for COc1ccc([C@@H](O)c2cc(-c3ncnc4cc(N5CCOCC5)ccc34)c(F)cc2Cl)nn1 + Nc1ccc(C#CCN(C(=O)Cc2ncc(C(F)(F)F)cc2C(F)(F)F)c2ccc(F)cc2)nn1 : what is it?
Solution: 6.20
